The reported numbers originate from patent US9828385B2.

- TEST_TARGET: human V1a receptor (Homo sapiens)
- Construct: expressed in transfected cells; host or cells: HEK293 cells, transiently transfected; cell membranes
- PROTOCOL_DETAILS: human V1a receptor binding studies (3H-Vasopressin, SPA beads)
- CONDITION_SUMMARY: membranes of HEK293 cells transiently transfected with human V1a receptor, Ki by Cheng-Prussoff from IC50, read-out: pKi hV1a (converted)
# Ki per record follows
Give the quantity in µM, number only.

O=C1N=C(N2CCC3(CC2)OCc2cccnc23)OC1Cc1ccccc1 (stereo not shown); 0.01
CC1(Cc2ccc(Cl)s2)OC(N2CCC3(CC2)OCc2ccccc23)=NC1=O (single isomer, unassigned; (+)) [Example 86]; 0.00126
CC1(Cc2ccc(Cl)nc2)OC(N2CCC3(CC2)OCc2ccccc23)=NC1=O (single isomer, unassigned; (-)) [Example 83]; 0.0398
O=C1N=C(N2CCC3(CC2)OCc2ccccc23)OC12CC=CC2; 0.1
O=C1N=C(N2CCC3(CC2)OCc2ccccc23)OC1c1ccccc1 (stereo not shown); 0.316
COc1ccc2c(c1)C(=O)OC21CCN(C2=NC(=O)C(Cc3ccccc3)O2)CC1 (stereo not shown); 0.1
O=C1N=C(N2CCC3(CC2)OCc2ccccc23)O[C@@H]1Cc1ccccc1; 0.00158
CN1Cc2ccccc2CC2(C1)OC(N1CCC3(CC1)OCc1ccccc13)=NC2=O (stereo not shown); 0.00126

**Q:** Determine its reported Ki: CC(C)CC1OC(N2CCC3(CC2)OCc2ccccc23)=NC1=O (stereo not shown)
**A:** 0.02

**Q:** Quick one: give measured Ki for CC1(Cc2ccc(Cl)cc2)OC(N2CCC3(CC2)OCc2ccccc23)=NC1=O (stereo not shown)
**A:** 0.00398

**Q:** Tell me measured Ki for CCCCCC1CCC2(CC1)OC(N1CCC3(CC1)OCc1ccccc13)=NC2=O (single isomer, unassigned; diastereomer b) [Example 129] please.
**A:** 0.158

----------
- TEST_TARGET: human V1a receptor (Homo sapiens, UniProt P37288)
- Construct: expressed in transfected cells; host or cells: HEK293 cells, transiently transfected; cell membranes
- Sequence (P37288 whole entry): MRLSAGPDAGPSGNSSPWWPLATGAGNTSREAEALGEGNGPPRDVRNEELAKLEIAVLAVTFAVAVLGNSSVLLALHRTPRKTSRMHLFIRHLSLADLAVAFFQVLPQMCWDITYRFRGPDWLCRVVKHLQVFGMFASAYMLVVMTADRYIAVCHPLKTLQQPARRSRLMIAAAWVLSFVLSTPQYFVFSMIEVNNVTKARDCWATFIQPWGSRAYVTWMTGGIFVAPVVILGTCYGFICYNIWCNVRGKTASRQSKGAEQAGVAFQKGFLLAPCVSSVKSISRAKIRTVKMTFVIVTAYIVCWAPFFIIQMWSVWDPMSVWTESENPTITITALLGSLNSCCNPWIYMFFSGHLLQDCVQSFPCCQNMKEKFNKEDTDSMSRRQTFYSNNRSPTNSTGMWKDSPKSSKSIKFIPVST
- PROTOCOL_DETAILS: human V1a receptor binding studies (3H-Vasopressin, SPA beads)
- CONDITION_SUMMARY: membranes of HEK293 cells transiently transfected with human V1a receptor, Ki by Cheng-Prussoff from IC50, read-out: pKi hV1a (converted)
Reported Ki values are given for each entry in this list.
Your answer is read as nM, so omit the unit and give the number.

CC1(Cc2c(F)c(F)c(F)c(F)c2F)OC(N2CCC3(CC2)OCc2ccccc23)=NC1=O (stereo not drawn) [Example 88]; 79.4
CCCCC1OC(N2CCC3(CC2)OCc2ccccc23)=NC1=O (single isomer, unassigned; (-)) [Example 3]; 50.1
O=C1N=C(N2CCC3(CC2)OCc2ccccc23)O[C@]12C[C@H]1CCCC[C@H]1C2 [Example 141]; 0.501

**Q:** Kindly indicate its recorded Ki. Item: O=C1N=C(N2CCC3(CC2)OCc2ccccc23)OC1C(O)c1ccc(Cl)cc1 (single isomer, unassigned; diastereomer a) [Example 42]
**A:** 3.16

**Q:** Tell me Ki reported for O=C1OC2(CCN(C3=NC(=O)C(Cc4ccccc4)O3)CC2)c2ccc(F)cc21 (stereo not drawn) [Example 27]
**A:** 15.8

**Q:** Annotate the compound CC(C)(C)[Si](C)(C)OCC1=CCC2(C1)OC(N1CCC3(CC1)OCc1ccccc13)=NC2=O (stereo not drawn) [Example 118] with its measured Ki.
**A:** 316

**Q:** Identify the reported Ki for the following entry. CC(=O)OC(c1ccc(Cl)cc1)C1OC(N2CCC3(CC2)OCc2ccccc23)=NC1=O (stereo not drawn) [Example 41]
**A:** 31.6

**Q:** State, in one line, measured Ki of CC1(CC2CCOC2)OC(N2CCC3(CC2)OCc2ccccc23)=NC1=O (single isomer, unassigned; diastereomer a) [Example 99]
**A:** 251

**Q:** Identify Ki associated with the compound CC(c1ccccc1)C1(C)OC(N2CCC3(CC2)OCc2ccccc23)=NC1=O (single isomer, unassigned; diastereomer a) [Example 106]
**A:** 15.8

**Q:** # return recorded Ki for input CCCCC1(C)OC(N2CCC3(CC2)OCc2ccccc23)=NC1=O (single isomer, unassigned; (-)) [Example 68]
**A:** 200

**Q:** Please supply the value of reported Ki for the item C=CCC1(CC=C)OC(N2CCC3(CC2)OCc2ccccc23)=NC1=O [Example 58]
**A:** 50.1

**Q:** Look up Ki of O=C1OC2(CCN(C3=NC(=O)C4(CCC(F)(F)CC4)O3)CC2)c2ccccc21 [Example 131] and report it.
**A:** 50.1

**Q:** In one line, give reported Ki of the entry C=CCC1(CC(=C)C)OC(N2CCC3(CC2)OCc2ccccc23)=NC1=O (stereo not drawn) [Example 59] .
**A:** 10

**Q:** Write down Ki measured for item CC1(Cc2ccc(Cl)s2)OC(N2CCC3(CC2)OCc2ccccc23)=NC1=O (stereo not drawn) [Example 85]
**A:** 5.01

**Q:** Write down Ki measured for item O=C1OC2(CCN(C3=NC(=O)C(CC4CCCC4)O3)CC2)c2ccccc21 (single isomer, unassigned; enantiomer b) [Example 16]
**A:** 12.6
